Numbers sourced from paper PMC5564600.

Measured Target: panel of 442 kinases (Homo sapiens)
Construct: purchased Ambit Biosciences (scanMAXX KINOMEscan)
Procedure Details: biochemical
Format: binding
Condition Set: kinase PFTK1; 1 µM; read-out: % of control at 1 µM
Measurement Type: remaining activity at 1 µM (%)
Quick note: give the figure in %, leave out the unit.

Entry COc1ncc(-c2ccc3nccc(-c4ccnnc4)c3c2)cc1NS(=O)(=O)c1ccc(F)cc1F [Omipalisib] ; remaining activity at 1 µM = 97

Note to self: remaining activity at 1 µM recorded for Nc1cc(C(F)(F)F)c(-c2cc(N3CCOCC3)nc(N3CCOCC3)n2)cn1 [Buparlisib] was 100

Entry FC(F)c1nc2ccccc2n1-c1nc(N2CCOCC2)nc(N2CCOCC2)n1 [ZSTK474] , remaining activity at 1 µM reported as 100

remaining activity at 1 µM measured on Cn1c(=O)n(-c2ccc(C(C)(C)C#N)cc2)c2c3cc(-c4cnc5ccccc5c4)ccc3ncc21 [Dactolisib] = 98

---

Measured Target: panel of 442 kinases (Homo sapiens)
Construct: purchased Ambit Biosciences (scanMAXX KINOMEscan)
Procedure Details: biochemical
Type: binding
Condition Set: EIF2AK1; 1 µM; read-out: % of control at 1 µM
Measurement Type: remaining activity at 1 µM (%)
Give the value in % but do not write % after it.

"Nc1cc(C(F)(F)F)c(-c2cc(N3CCOCC3)nc(N3CCOCC3)n2)cn1" has a reported remaining activity at 1 µM of 92

The value of remaining activity at 1 µM measured for the molecule "COc1ncc(-c2ccc3nccc(-c4ccnnc4)c3c2)cc1NS(=O)(=O)c1ccc(F)cc1F" turned out to be 100

Lab note: measured remaining activity at 1 µM of "FC(F)c1nc2ccccc2n1-c1nc(N2CCOCC2)nc(N2CCOCC2)n1" was 77

response.value for "Cn1c(=O)n(-c2ccc(C(C)(C)C#N)cc2)c2c3cc(-c4cnc5ccccc5c4)ccc3ncc21" (field: remaining activity at 1 µM) = 94

---

Measured Target: panel of 442 kinases (Homo sapiens, UniProt P00533, DEL746-750)
Construct: purchased Ambit Biosciences (scanMAXX KINOMEscan)
Sequence (P00533 with tags, fused parts or gaps DEL746-750): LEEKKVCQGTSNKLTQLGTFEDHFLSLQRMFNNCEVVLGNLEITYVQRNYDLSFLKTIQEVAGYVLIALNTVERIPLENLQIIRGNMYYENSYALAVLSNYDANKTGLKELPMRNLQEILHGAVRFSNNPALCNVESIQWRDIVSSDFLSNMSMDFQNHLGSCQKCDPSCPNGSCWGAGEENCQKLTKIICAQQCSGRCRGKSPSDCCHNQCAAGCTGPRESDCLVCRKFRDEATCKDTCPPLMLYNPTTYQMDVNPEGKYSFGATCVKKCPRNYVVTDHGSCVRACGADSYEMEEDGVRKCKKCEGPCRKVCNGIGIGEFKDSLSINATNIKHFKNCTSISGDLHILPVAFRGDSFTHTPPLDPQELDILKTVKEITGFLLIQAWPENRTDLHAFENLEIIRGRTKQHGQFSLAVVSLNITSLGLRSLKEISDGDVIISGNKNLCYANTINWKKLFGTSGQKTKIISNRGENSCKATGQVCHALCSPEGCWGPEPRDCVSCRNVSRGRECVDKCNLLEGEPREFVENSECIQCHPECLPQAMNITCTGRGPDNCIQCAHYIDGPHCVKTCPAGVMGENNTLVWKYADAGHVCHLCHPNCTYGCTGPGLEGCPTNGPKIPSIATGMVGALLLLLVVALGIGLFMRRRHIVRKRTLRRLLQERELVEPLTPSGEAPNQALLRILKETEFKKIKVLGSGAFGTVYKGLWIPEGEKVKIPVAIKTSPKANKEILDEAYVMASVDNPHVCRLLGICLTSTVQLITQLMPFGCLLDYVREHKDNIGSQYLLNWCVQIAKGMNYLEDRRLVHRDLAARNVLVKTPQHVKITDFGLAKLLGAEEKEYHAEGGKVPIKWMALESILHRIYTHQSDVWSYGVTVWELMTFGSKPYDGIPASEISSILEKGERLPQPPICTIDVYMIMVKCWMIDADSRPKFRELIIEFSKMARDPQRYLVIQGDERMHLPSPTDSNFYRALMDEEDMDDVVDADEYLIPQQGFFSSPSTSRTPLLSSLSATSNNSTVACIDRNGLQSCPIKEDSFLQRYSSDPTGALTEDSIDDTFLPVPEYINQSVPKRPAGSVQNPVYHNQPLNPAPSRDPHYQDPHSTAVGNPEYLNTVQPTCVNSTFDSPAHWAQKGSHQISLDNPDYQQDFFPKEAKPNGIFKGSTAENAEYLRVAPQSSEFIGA
Procedure Details: biochemical
Assay type: binding
Condition Set: EGFR(E746-A750del); 1 µM; read-out: % of control at 1 µM
Please respond with reported remaining activity at 1 µM for every item in the list.
// return numeric value only (unit: %, not printed)

Memo: "COc1ncc(-c2ccc3nccc(-c4ccnnc4)c3c2)cc1NS(=O)(=O)c1ccc(F)cc1F" , reported remaining activity at 1 µM: 97

remaining activity at 1 µM measured on "Cn1c(=O)n(-c2ccc(C(C)(C)C#N)cc2)c2c3cc(-c4cnc5ccccc5c4)ccc3ncc21" = 100

Value of measured remaining activity at 1 µM for the entry "FC(F)c1nc2ccccc2n1-c1nc(N2CCOCC2)nc(N2CCOCC2)n1" : 94

According to the records, this compound "Nc1cc(C(F)(F)F)c(-c2cc(N3CCOCC3)nc(N3CCOCC3)n2)cn1" displays remaining activity at 1 µM of 100

---

Measured Target: panel of 442 kinases (Homo sapiens, UniProt P37173)
Construct: purchased Ambit Biosciences (scanMAXX KINOMEscan)
Sequence (P37173 23-567): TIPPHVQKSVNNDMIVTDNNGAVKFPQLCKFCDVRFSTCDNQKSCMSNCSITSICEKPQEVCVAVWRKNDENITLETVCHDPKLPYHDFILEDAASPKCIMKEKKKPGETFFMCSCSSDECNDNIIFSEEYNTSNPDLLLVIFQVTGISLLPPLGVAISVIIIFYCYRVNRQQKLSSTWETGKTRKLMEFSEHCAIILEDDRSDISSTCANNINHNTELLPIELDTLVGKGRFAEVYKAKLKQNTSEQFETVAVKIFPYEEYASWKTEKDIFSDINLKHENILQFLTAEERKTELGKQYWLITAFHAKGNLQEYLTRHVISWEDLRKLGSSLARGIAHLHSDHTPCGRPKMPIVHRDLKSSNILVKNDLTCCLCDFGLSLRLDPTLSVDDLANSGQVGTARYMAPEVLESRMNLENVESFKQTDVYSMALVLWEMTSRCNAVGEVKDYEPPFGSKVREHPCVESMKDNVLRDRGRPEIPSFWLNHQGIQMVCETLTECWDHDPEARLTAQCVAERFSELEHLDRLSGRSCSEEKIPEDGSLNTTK
Procedure Details: biochemical
Type: binding
Condition Set: kinase TGFBR2; 1 µM; read-out: TGFBR2 (% of control at 1 µM)
Measurement Type: remaining activity at 1 µM
# output: number + unit

Short answer on panel of 442 kinases (Homo sapiens, UniProt P37173) for "Nc1cc(C(F)(F)F)c(-c2cc(N3CCOCC3)nc(N3CCOCC3)n2)cn1" , remaining activity at 1 µM: 98%

panel of 442 kinases (Homo sapiens, UniProt P37173) remaining activity at 1 µM of "FC(F)c1nc2ccccc2n1-c1nc(N2CCOCC2)nc(N2CCOCC2)n1" is 100%

The reported remaining activity at 1 µM value, panel of 442 kinases (Homo sapiens, UniProt P37173), for "Cn1c(=O)n(-c2ccc(C(C)(C)C#N)cc2)c2c3cc(-c4cnc5ccccc5c4)ccc3ncc21" reads 100%

remaining activity at 1 µM of "COc1ncc(-c2ccc3nccc(-c4ccnnc4)c3c2)cc1NS(=O)(=O)c1ccc(F)cc1F" , assay on panel of 442 kinases (Homo sapiens, UniProt P37173), is 95%

---

Measured Target: panel of 442 kinases (Homo sapiens)
Construct: purchased Ambit Biosciences (scanMAXX KINOMEscan)
Procedure Details: biochemical
Format: binding
Condition Set: kinase MEK6; 1 µM; read-out: % of control at 1 µM
Measurement Type: remaining activity at 1 µM
Respond with a number, then the unit of measure.

Observed remaining activity at 1 µM on panel of 442 kinases (Homo sapiens), entry Nc1cc(C(F)(F)F)c(-c2cc(N3CCOCC3)nc(N3CCOCC3)n2)cn1 [Buparlisib] , equals 90%

The molecule COc1ncc(-c2ccc3nccc(-c4ccnnc4)c3c2)cc1NS(=O)(=O)c1ccc(F)cc1F [Omipalisib] on panel of 442 kinases (Homo sapiens): remaining activity at 1 µM was 51%

Entry FC(F)c1nc2ccccc2n1-c1nc(N2CCOCC2)nc(N2CCOCC2)n1 [ZSTK474] ; assay system panel of 442 kinases (Homo sapiens); remaining activity at 1 µM recorded at 97%

Measured remaining activity at 1 µM for this entry Cn1c(=O)n(-c2ccc(C(C)(C)C#N)cc2)c2c3cc(-c4cnc5ccccc5c4)ccc3ncc21 [Dactolisib] on panel of 442 kinases (Homo sapiens): 96%

---

Record form. Attribute: remaining activity at 1 µM. Fill in for each entry.
Measured Target: panel of 442 kinases (Homo sapiens, UniProt Q8N568)
Construct: purchased Ambit Biosciences (scanMAXX KINOMEscan)
Sequence (Q8N568 whole entry): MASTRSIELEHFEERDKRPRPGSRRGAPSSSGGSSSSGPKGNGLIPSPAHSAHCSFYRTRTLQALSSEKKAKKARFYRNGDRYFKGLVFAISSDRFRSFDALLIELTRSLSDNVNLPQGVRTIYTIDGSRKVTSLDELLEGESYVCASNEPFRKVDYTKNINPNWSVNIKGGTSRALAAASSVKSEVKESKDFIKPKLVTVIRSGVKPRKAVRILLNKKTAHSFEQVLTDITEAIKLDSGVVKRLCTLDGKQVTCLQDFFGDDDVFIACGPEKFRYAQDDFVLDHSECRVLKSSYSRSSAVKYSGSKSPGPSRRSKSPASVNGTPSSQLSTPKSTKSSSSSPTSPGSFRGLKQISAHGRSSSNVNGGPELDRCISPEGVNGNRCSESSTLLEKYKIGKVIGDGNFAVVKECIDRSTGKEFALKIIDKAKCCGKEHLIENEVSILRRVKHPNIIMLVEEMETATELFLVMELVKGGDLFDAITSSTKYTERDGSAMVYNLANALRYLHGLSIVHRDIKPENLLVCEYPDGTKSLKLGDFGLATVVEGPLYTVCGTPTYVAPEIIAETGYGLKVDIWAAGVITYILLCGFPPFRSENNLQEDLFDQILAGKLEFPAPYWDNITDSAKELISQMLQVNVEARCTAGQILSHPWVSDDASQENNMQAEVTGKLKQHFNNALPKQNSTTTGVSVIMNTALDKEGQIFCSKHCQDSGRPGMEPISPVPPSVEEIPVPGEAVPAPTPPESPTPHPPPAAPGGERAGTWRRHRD
Procedure Details: biochemical
Assay type: binding
Condition Set: DCAMKL2; 1 µM; read-out: % of control at 1 µM
Give just the numeric value; % need not be written.

Lab note: COc1ncc(-c2ccc3nccc(-c4ccnnc4)c3c2)cc1NS(=O)(=O)c1ccc(F)cc1F [Omipalisib] gave remaining activity at 1 µM of 100

Data point: Nc1cc(C(F)(F)F)c(-c2cc(N3CCOCC3)nc(N3CCOCC3)n2)cn1 [Buparlisib] ; remaining activity at 1 µM = 100

Per the record, Cn1c(=O)n(-c2ccc(C(C)(C)C#N)cc2)c2c3cc(-c4cnc5ccccc5c4)ccc3ncc21 [Dactolisib] has remaining activity at 1 µM of 94

Short answer for FC(F)c1nc2ccccc2n1-c1nc(N2CCOCC2)nc(N2CCOCC2)n1 [ZSTK474] : remaining activity at 1 µM was 100

---

Measured Target: panel of 442 kinases (Homo sapiens)
Construct: purchased Ambit Biosciences (scanMAXX KINOMEscan)
Procedure Details: biochemical
Type: binding
Condition Set: kinase HIPK2; 1 µM; read-out: % of control at 1 µM
Measurement Type: remaining activity at 1 µM
Your answer should be a number followed by the unit of measure.

Record "COc1ncc(-c2ccc3nccc(-c4ccnnc4)c3c2)cc1NS(=O)(=O)c1ccc(F)cc1F" . Reported remaining activity at 1 µM: 91%

Looking up "FC(F)c1nc2ccccc2n1-c1nc(N2CCOCC2)nc(N2CCOCC2)n1" , I see its remaining activity at 1 µM listed as 86%

Memo: "Cn1c(=O)n(-c2ccc(C(C)(C)C#N)cc2)c2c3cc(-c4cnc5ccccc5c4)ccc3ncc21" , reported remaining activity at 1 µM: 64%

"Nc1cc(C(F)(F)F)c(-c2cc(N3CCOCC3)nc(N3CCOCC3)n2)cn1" yielded remaining activity at 1 µM of 100%

---

Measured Target: panel of 442 kinases (Homo sapiens, UniProt O95382)
Construct: purchased Ambit Biosciences (scanMAXX KINOMEscan)
Sequence (O95382 whole entry): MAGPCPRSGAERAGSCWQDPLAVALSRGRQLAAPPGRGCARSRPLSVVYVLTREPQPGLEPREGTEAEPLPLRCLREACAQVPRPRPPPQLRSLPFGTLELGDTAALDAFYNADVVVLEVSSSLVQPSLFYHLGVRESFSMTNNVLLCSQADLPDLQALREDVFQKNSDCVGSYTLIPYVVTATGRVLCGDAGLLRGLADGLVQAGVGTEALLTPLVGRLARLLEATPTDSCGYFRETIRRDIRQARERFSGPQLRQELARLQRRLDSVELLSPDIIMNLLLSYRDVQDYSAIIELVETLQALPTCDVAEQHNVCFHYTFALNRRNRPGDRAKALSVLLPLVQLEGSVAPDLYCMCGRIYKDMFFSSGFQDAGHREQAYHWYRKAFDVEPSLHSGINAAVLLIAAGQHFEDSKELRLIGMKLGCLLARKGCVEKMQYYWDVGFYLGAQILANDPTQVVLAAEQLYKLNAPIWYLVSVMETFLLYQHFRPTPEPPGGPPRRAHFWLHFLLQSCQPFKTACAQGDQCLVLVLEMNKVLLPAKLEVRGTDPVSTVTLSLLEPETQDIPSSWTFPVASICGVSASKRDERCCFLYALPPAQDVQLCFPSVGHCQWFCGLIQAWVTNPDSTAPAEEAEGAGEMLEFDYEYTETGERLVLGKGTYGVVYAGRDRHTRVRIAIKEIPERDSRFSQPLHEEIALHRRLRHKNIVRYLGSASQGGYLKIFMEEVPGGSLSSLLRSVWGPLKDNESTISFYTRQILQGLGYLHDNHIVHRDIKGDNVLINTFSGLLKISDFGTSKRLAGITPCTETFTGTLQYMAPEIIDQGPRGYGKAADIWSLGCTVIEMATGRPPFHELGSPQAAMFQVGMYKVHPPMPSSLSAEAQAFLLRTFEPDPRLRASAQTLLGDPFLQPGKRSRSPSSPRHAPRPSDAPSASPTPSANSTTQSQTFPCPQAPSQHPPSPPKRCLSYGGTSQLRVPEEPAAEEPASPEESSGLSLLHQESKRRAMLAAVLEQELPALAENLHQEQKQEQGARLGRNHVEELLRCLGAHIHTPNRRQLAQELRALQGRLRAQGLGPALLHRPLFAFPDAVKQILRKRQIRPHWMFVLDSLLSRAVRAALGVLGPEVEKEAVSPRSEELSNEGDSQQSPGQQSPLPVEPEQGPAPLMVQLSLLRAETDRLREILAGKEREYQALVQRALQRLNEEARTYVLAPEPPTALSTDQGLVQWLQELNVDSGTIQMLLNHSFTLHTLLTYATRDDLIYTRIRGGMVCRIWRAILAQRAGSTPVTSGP
Procedure Details: biochemical
Type: binding
Condition Set: ASK2; 1 µM; read-out: % of control at 1 µM
Measurement Type: remaining activity at 1 µM (%)
A number alone suffices; assume %.

Measured remaining activity at 1 µM of "COc1ncc(-c2ccc3nccc(-c4ccnnc4)c3c2)cc1NS(=O)(=O)c1ccc(F)cc1F" : 91

Looking up "Cn1c(=O)n(-c2ccc(C(C)(C)C#N)cc2)c2c3cc(-c4cnc5ccccc5c4)ccc3ncc21" , I found its remaining activity at 1 µM recorded as 90

GET /value?item= "Nc1cc(C(F)(F)F)c(-c2cc(N3CCOCC3)nc(N3CCOCC3)n2)cn1" &field=remaining activity at 1 µM returns 87

In plain terms, "FC(F)c1nc2ccccc2n1-c1nc(N2CCOCC2)nc(N2CCOCC2)n1" has a documented remaining activity at 1 µM of 97

---

Measured Target: panel of 442 kinases (Homo sapiens, UniProt P29320)
Construct: purchased Ambit Biosciences (scanMAXX KINOMEscan)
Sequence (P29320 21-983): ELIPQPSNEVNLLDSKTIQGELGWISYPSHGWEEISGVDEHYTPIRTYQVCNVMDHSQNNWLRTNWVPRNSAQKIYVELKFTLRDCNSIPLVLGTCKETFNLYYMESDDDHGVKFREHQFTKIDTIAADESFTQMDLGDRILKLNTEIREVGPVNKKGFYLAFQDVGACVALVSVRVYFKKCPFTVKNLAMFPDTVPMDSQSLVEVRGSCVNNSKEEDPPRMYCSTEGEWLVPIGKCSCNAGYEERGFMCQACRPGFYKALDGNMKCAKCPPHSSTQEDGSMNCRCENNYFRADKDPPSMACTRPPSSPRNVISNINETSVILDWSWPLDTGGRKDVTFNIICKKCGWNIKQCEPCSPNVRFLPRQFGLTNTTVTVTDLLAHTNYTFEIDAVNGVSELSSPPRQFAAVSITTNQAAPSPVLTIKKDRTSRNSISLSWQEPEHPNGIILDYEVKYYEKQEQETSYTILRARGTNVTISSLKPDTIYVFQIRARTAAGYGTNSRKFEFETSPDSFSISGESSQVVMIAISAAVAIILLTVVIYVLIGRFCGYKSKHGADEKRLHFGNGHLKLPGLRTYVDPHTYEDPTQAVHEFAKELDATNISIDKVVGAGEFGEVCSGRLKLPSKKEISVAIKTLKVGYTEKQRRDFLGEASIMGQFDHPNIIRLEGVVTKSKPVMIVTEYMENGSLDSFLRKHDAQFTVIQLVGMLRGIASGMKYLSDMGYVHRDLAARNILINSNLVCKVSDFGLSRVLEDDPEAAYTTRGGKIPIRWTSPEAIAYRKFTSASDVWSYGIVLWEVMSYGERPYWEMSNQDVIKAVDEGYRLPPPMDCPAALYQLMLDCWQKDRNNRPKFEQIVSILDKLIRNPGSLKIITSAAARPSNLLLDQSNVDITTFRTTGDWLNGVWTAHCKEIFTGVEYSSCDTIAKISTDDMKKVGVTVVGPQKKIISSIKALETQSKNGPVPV
Procedure Details: biochemical
Type: binding
Condition Set: EPHA3; 1 µM; read-out: % of control at 1 µM
Measurement Type: remaining activity at 1 µM (%)
Report the figure in % without appending any unit label.

Input COc1ncc(-c2ccc3nccc(-c4ccnnc4)c3c2)cc1NS(=O)(=O)c1ccc(F)cc1F [Omipalisib] . Output remaining activity at 1 µM: 100

// recorded remaining activity at 1 µM for Nc1cc(C(F)(F)F)c(-c2cc(N3CCOCC3)nc(N3CCOCC3)n2)cn1 [Buparlisib] : 96

remaining activity at 1 µM reported for this molecule Cn1c(=O)n(-c2ccc(C(C)(C)C#N)cc2)c2c3cc(-c4cnc5ccccc5c4)ccc3ncc21 [Dactolisib] : 63

remaining activity at 1 µM for FC(F)c1nc2ccccc2n1-c1nc(N2CCOCC2)nc(N2CCOCC2)n1 [ZSTK474] is 93
